Hello, the source for this data is PubChem BioAssay (NCI), in case you need it.

# Test system: A549 NSCLC
# ASSAY PROCEDURE: NCI tumour cell line growth inhibition, 48 h
REPORTED ENDPOINT: GI50

{"SMILES RECORD": "CC1=C2C(=O)[C@](C)(CO)C=C2C(=O)[C@](C)(O)C12CC2", "MEASURED ON": "A549 NSCLC", "GI50": "2.91 µM"}
{"SMILES RECORD": "CNC(=O)c1cc(-n2ccc3cc(NC(=O)Nc4ccc(N5CCOCC5)c(C(F)(F)F)c4)ccc32)ccn1", "MEASURED ON": "A549 NSCLC", "GI50": "5.15 µM"}

For record CCn1c2ccc(/C=N/OCCCN(C)C)cc2c2cc(/C=N/OCCCN(C)C)ccc21 the listed GI50 is 1.59 µM

For record C=C(C)C(=O)O[C@H]1C[C@@]2(C)OC(=CC2=O)/C(C)=C\[C@H]2OC(=O)C(=C)[C@H]12 the listed GI50 is 8.47 µM
